Attribution: ChEMBL document CHEMBL1153258

# Tested on: HeLa
# Test Protocol: Antiviral activity (to reduce virus-induced cytopathogenicity) against Coxsackie virus B4 in HeLa cells
# Format: functional
# Experimental Conditions: Homo sapiens
Measurement Type: MIC

1. Cc1ccn2c(COCCO)cnc2c1
> 200 µg/mL
2. Nc1ncnc2c1ncn2C[C@H](O)CO [(S)-DHPA]
> 400 µg/mL
3. Cc1ccn2c(CSCCO)cnc2c1
> 10 µg/mL
4. NC(=O)c1ncn([C@@H]2O[C@H](CO)[C@@H](O)[C@H]2O)n1
70 µg/mL
5. OCCSCc1c(-c2ccccc2)nc2ccccn12
> 100 µg/mL
6. Nc1nccc2c1ncn2[C@@H]1O[C@H](CO)[C@@H](O)[C@H]1O
> 400 µg/mL
7. O=c1[nH]c(=O)n([C@H]2C[C@H](O)[C@@H](CO)O2)cc1/C=C/Br
> 400 µg/mL
8. OCCOCc1c(-c2ccccc2)nc2ccccn12
> 200 µg/mL

====

# System: HEL
# Test Protocol: Antiviral activity against thymidine kinase-positive (TK+) YS strain of Varicella zoster virus to reduce plaque formation in human embryonic lung (HEL) cells
# Type: functional, cell-based
In this section we review reported IC50 values for a set of molecules.
Measurement Type: IC50 (µg/mL)

1) Nc1nc2c(ncn2COCCO)c(=O)[nH]1 [ACYCLOVIR]
0.32
2) OCCSCc1c(-c2ccccc2)nc2ccccn12
35
3) Cc1ccn2c(CSCCO)cnc2c1
6

====

# Test system: HEL
# Test Protocol: Antiviral activity against thymidine kinase-positive (TK+) OKA strain of Varicella zoster virus to reduce plaque formation in human embryonic lung (HEL) cells
# Type: functional, cell-based
Consider the following compounds and their measured IC50 readings.
Measurement Type: IC50 (µg/mL)

1. Nc1nc2c(ncn2COCCO)c(=O)[nH]1 [ACYCLOVIR]
0.23
2. OCCSCc1c(-c2ccccc2)nc2ccccn12
28
3. Cc1ccn2c(CSCCO)cnc2c1
10

====

Reported CC50 values are given for each entry in this list.
# Test Protocol: Cytotoxicity (to reduce cell growth) against Cytomegalovirus in human embryonic lung (HEL) cells
# Type: cell-based
Measurement Type: CC50 (µg/mL)

1. Cc1ccn2c(CSCCO)cnc2c1
70
2. OCCSCc1c(-c2ccccc2)nc2ccccn12
80
3. Nc1nc2c(ncn2COC(CO)CO)c(=O)[nH]1 [GANCICLOVIR]
200
4. OCCOCc1c(-c2ccccc2)nc2ccccn12
130

====

CC50 reference
# Test Protocol: Cytotoxicity (to reduce cell growth) against Varicella-Zoster virus in human embryonic lung (HEL) cells
# Type: cell-based
Measurement Type: CC50

1) OCCOCc1c(-c2ccccc2)nc2ccccn12
135 µg/mL
2) OCCSCc1c(-c2ccccc2)nc2ccccn12
80 µg/mL
3) Cc1ccn2c(COCCO)cnc2c1
> 200 µg/mL
4) Cc1ccn2c(CSCCO)cnc2c1
70 µg/mL
5) Nc1nc2c(ncn2COCCO)c(=O)[nH]1
> 50 µg/mL

====

MCC: recorded values
# Tested on: HEL
# Test Protocol: Cytotoxicity (to alter cell morphology) against Cytomegalovirus in human embryonic lung (HEL) cells
# Format: functional
Measurement Type: MCC (µg/mL)

1) Cc1ccn2c(CSCCO)cnc2c1
40
2) OCCOCc1c(-c2ccccc2)nc2ccccn12
100

====

Reported MCC values are given for each entry in this list.
# System: HeLa
# Test Protocol: Cytotoxicity (to alter cell morphology) against HeLa cells
# Assay type: functional
# Experimental Conditions: Homo sapiens
Measurement Type: MCC

1. Nc1ncnc2c1ncn2C[C@H](O)CO [(S)-DHPA]
> 400 µg/mL
2. NC(=O)c1ncn([C@@H]2O[C@H](CO)[C@@H](O)[C@H]2O)n1
> 400 µg/mL
3. O=c1[nH]c(=O)n([C@H]2C[C@H](O)[C@@H](CO)O2)cc1/C=C/Br
> 400 µg/mL
4. OCCSCc1c(-c2ccccc2)nc2ccccn12
> 100 µg/mL
5. Nc1nccc2c1ncn2[C@@H]1O[C@H](CO)[C@@H](O)[C@H]1O
> 400 µg/mL
6. OCCOCc1c(-c2ccccc2)nc2ccccn12
400 µg/mL
7. Cc1ccn2c(COCCO)cnc2c1
200 µg/mL
8. Cc1ccn2c(CSCCO)cnc2c1
10 µg/mL

====

Readings of MIC for the listed compounds
# Tested on: Vero
# Test Protocol: Antiviral activity (to reduce virus-induced cytopathogenicity) against forest virus in vero cells
# Assay type: functional
# Experimental Conditions: Chlorocebus sabaeus
Measurement Type: MIC

1) NC(=O)c1ncn([C@@H]2O[C@H](CO)[C@@H](O)[C@H]2O)n1 [RIBAVIRIN]
70 µg/mL
2) Nc1ncnc2c1ncn2C[C@H](O)CO [(S)-DHPA]
> 400 µg/mL
3) Nc1nccc2c1ncn2[C@@H]1O[C@H](CO)[C@@H](O)[C@H]1O
> 400 µg/mL
4) O=c1[nH]c(=O)n([C@H]2C[C@H](O)[C@@H](CO)O2)cc1/C=C/Br [BRIVUDINE]
> 400 µg/mL
5) OCCOCc1c(-c2ccccc2)nc2ccccn12
> 200 µg/mL
6) Cc1ccn2c(COCCO)cnc2c1
> 200 µg/mL
7) Cc1ccn2c(CSCCO)cnc2c1
> 100 µg/mL
8) OCCSCc1c(-c2ccccc2)nc2ccccn12
20 µg/mL

====

# Tested on: HEL
# Test Protocol: Cytotoxicity (to alter cell morphology) against Cytomegalovirus in human embryonic lung (HEL) cells
# Assay type: functional
Measurement Type: MCC

1. Cc1ccn2c(COCCO)cnc2c1
> 40 µg/mL
2. Nc1nc2c(ncn2COC(CO)CO)c(=O)[nH]1
> 100 µg/mL
3. OCCSCc1c(-c2ccccc2)nc2ccccn12
> 40 µg/mL
